Origin of values: ChEMBL document CHEMBL4823249

target: Tyrosine-protein kinase BTK (Homo sapiens, UniProt Q06187); test: Inhibition of full length recombinant human BTK using KVEKIGEGTYGVVYK as substrate incubated for 40 mins in presence of [gamma-33P]-ATP by scintillation counting based radiometry assay
Sequence (Q06187 whole entry): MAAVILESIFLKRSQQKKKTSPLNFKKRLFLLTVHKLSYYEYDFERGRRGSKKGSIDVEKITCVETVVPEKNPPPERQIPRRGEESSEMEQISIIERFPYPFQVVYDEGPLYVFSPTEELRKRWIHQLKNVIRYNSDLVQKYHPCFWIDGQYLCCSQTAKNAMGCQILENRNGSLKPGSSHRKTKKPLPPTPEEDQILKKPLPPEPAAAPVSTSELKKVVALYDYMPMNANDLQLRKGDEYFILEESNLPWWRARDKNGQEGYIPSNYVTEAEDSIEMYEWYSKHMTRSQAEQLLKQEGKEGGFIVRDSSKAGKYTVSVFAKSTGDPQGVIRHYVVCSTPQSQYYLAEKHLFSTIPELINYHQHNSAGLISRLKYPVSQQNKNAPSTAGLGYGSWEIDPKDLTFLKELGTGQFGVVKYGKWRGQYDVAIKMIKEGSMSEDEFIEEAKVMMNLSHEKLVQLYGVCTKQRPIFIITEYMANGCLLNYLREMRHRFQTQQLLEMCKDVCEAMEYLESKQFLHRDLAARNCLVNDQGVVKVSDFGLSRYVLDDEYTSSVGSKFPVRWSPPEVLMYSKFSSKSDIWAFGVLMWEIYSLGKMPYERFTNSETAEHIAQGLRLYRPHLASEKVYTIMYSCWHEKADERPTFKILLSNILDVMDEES
pIC50: −log10 of the molar value.
Quantity Kind: pIC50

1. CC(C)n1cc(C(=O)Nc2ccc(Oc3ccnc(NC(=O)C4CC4)c3)c(F)c2)c(=O)n(-c2ccc(F)cc2)c1=O :: < 6.00
